target: Cyclin-dependent kinase/G2/mitotic-specific cyclin- 1 (Homo sapiens)
Sequence (P06493 whole entry): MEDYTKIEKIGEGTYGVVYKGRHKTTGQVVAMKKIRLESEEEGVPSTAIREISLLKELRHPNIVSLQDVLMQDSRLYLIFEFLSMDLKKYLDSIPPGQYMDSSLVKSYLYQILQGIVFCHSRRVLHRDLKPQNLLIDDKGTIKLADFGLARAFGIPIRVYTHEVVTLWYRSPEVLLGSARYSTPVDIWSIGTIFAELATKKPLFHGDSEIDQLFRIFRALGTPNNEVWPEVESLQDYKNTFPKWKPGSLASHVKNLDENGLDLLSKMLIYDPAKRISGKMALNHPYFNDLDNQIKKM
Sequence (P14635 whole entry, further chain): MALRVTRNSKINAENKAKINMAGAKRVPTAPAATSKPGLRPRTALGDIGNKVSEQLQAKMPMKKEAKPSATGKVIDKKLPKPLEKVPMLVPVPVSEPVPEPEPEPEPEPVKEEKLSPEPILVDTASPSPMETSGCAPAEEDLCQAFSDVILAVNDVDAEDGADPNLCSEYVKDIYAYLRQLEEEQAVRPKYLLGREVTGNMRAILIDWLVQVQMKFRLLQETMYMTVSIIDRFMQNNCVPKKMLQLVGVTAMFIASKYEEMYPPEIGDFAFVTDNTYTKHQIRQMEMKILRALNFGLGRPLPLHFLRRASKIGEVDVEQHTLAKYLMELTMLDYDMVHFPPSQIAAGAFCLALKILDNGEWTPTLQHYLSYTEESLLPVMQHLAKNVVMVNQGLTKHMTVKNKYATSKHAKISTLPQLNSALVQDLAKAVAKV
Measured Parameter: IC50 (µM)
Numbers only, in µM.

Need IC50 of CNC(=O)c1ccc(Nc2ncc(Br)s2)cc1 , thanks.
4.27

====

target: Aurora kinase A (Homo sapiens, UniProt O14965); assay: Aurora Kinase SPA Assay
In plain terms, low IC50, meaning strictly below 5 µM, gives Fulfilled, and everything else gives Not fulfilled.

For orientation, consider the following solved cases.
{"Molecule": "FC(F)(F)c1cc(Nc2ncc(Br)s2)cc(C(F)(F)F)c1", "Answer Label": "Not fulfilled"}
{"Molecule": "COc1ccccc1Nc1ncc(Br)s1", "Answer Label": "Fulfilled"}

Does this molecule meet the criterion IC50 < 5 µM? Cc1cccc(Nc2ncc(Br)s2)c1
Fulfilled

Does this molecule meet the criterion IC50 < 5 µM? Cc1ccccc1Nc1ncc(Br)s1
Fulfilled

Does this molecule meet the criterion IC50 < 5 µM? O=C(Nc1ncc(Br)s1)c1ccccc1 [N-(5-bromo-1,3-thiazol-2-yl)benzamide]
Not fulfilled

====

Target: Aurora kinase A (Homo sapiens)
Assay: Aurora Kinase SPA Assay
Details: pH 7; 22 °C
Experimental: The biochemical activity of compounds was determined by incubation with Aurora A and substrates in the presence ATP/[gamma-33P] ATP. After incubation, the reaction was stopped and the phosphorylated substrate was separated from nonincorporated radioactive ATP using SPA beads (Amersham Pharmacia Biotech), counted using TopCount (Packard) to measure substrate-incorporated phosphate.
In plain terms, low IC50, meaning strictly below 900 nM, gives 1 (yes), and everything else gives 0 (no).

Does this compound meet the criterion IC50 < 900 nM? Fc1ccc(Nc2nccs2)cc1
0 (no)

Does this compound meet the criterion IC50 < 900 nM? Fc1ccc(Nc2nc(Br)cs2)cc1
0 (no)

Does this compound meet the criterion IC50 < 900 nM? Cc1ccc(Nc2ncc(Br)s2)cc1
0 (no)

Does this compound meet the criterion IC50 < 900 nM? CC(=O)Nc1ccc(Nc2ncc(Br)s2)cc1
1 (yes)

Does this compound meet the criterion IC50 < 900 nM? Fc1ccc(Nc2ncc(Br)s2)cc1
1 (yes)

Does this compound meet the criterion IC50 < 900 nM? Fc1ccc(Nc2ncc(I)s2)cc1
1 (yes)

Does this compound meet the criterion IC50 < 900 nM? Fc1ccc(Nc2ncc(Cl)s2)cc1
0 (no)

Does this compound meet the criterion IC50 < 900 nM? O=C(NCCO)c1ccc(Nc2ncc(Br)s2)cc1
0 (no)

Does this compound meet the criterion IC50 < 900 nM? O=[N+]([O-])c1ccc(Nc2ncc(Br)s2)cc1
0 (no)

Does this compound meet the criterion IC50 < 900 nM? O=C(O)c1ccc(Nc2ncc(Br)s2)cc1
1 (yes)

Does this compound meet the criterion IC50 < 900 nM? CC(=O)c1ccc(Nc2ncc(Br)s2)cc1
0 (no)

Does this compound meet the criterion IC50 < 900 nM? O=C(Nc1ccc(Nc2ncc(Br)s2)cc1)c1ccccc1
0 (no)

Does this compound meet the criterion IC50 < 900 nM? Brc1cnc(Nc2ccc(I)cc2)s1
0 (no)

Does this compound meet the criterion IC50 < 900 nM? COCCNC(=O)c1ccc(Nc2ncc(Br)s2)cc1
1 (yes)

Does this compound meet the criterion IC50 < 900 nM? COCC(C)NC(=O)c1ccc(Nc2ncc(Br)s2)cc1 (centres undefined)
1 (yes)

Does this compound meet the criterion IC50 < 900 nM? Brc1cnc(Nc2ccc(Oc3ccccc3)cc2)s1
0 (no)

Does this compound meet the criterion IC50 < 900 nM? Brc1cnc(Nc2ccccc2)s1
0 (no)

Does this compound meet the criterion IC50 < 900 nM? CN(c1ccc(F)cc1)c1ncc(Br)s1
0 (no)

Does this compound meet the criterion IC50 < 900 nM? Clc1ccc(Nc2ncc(Br)s2)cc1
0 (no)

Does this compound meet the criterion IC50 < 900 nM? COc1ccc(Nc2ncc(Br)s2)cc1
0 (no)

Does this compound meet the criterion IC50 < 900 nM? FC(F)(F)Oc1ccc(Nc2ncc(Br)s2)cc1
0 (no)

Does this compound meet the criterion IC50 < 900 nM? Brc1ccc(Nc2ncc(Br)s2)cc1
0 (no)

====

Give measured pIC50 for each item. Keep answers brief.
Biological target: Aurora kinase A (Homo sapiens, UniProt O14965)
Sequence (O14965 whole entry): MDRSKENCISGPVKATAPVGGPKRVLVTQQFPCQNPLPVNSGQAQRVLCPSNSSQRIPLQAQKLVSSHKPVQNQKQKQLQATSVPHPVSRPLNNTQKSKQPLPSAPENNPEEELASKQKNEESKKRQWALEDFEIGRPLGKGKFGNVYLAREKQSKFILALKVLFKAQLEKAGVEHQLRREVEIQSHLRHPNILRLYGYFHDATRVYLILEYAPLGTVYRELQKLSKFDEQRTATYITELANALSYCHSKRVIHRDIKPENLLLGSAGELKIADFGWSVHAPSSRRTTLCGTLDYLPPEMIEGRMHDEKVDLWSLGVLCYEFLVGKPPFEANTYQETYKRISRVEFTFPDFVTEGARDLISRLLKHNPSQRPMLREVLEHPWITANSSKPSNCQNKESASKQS
Experiment: Aurora Kinase SPA Assay
Answers are plain numbers, as −log10 of the molar value.

{"Smiles Code": "Brc1cnc(Nc2cccc3ccccc23)s1", "Measured Parameter": "pIC50", "Reported Result": 5.30}

Look at each compound and report its pIC50.
1. CNC(=O)c1cccc(Nc2ncc(Br)s2)c1
2. Fc1ccccc1Nc1ncc(Br)s1

[6.13, 5.26]

Look at each compound and report its pIC50.
1. N#Cc1cnc(Nc2ccccn2)s1
2. Brc1cnc(Nc2ccncc2)s1
3. N#Cc1cnc(Nc2ccc(CN3CCOCC3)cn2)s1

1: 5.60; 2: 5.11; 3: 5.85

Look at each compound and report its pIC50.
1. CCN(CC)CCNC(=O)c1ccc(Nc2ncc(Br)s2)cc1
2. N#Cc1cnc(Nc2ccc(CN3CCN(CCO)CC3)cn2)s1
3. CCN1CCN(Cc2ccc(Nc3ncc(C#N)s3)nc2)CC1
4. COc1cccc(Nc2ncc(Br)s2)c1
5. Fc1cccc(Nc2ncc(Br)s2)c1

1. 5.34
2. 5.27
3. 5.36
4. 6.05
5. 5.03

====

Biological target: Aurora kinase A (Homo sapiens, UniProt O14965)
Sequence (O14965 whole entry): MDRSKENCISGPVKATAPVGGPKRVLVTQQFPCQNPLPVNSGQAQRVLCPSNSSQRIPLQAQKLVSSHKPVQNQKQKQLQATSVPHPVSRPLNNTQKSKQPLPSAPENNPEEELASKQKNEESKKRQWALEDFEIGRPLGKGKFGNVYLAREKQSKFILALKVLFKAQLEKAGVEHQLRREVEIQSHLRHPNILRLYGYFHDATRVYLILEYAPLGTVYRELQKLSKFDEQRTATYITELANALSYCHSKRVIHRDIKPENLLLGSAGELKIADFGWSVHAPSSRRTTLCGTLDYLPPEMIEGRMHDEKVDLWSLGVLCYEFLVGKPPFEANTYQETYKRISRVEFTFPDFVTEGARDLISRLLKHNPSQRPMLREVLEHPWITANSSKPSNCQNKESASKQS
Experiment: Aurora Kinase SPA Assay
Conditions: pH 7; 22 °C
Give measured log10 of IC50 for each item. Keep answers brief.
Would you kindly interpret these values as log10 of IC50 expressed in nM?

{"Smiles Code": "Brc1cnc(Nc2ccc(Oc3ccncc3)cc2)s1", "Reported Result": 2.95}

Look at each compound and report its log10 of IC50.
1. COCCN(C)C(=O)c1ccc(Nc2ncc(Br)s2)cc1
2. N#Cc1ccc(Nc2ncc(Br)s2)cc1
3. Nc1ccc(Nc2ncc(Br)s2)cc1
4. Oc1ccc(Nc2ncc(Br)s2)cc1
5. CCOC(=O)c1ccc(Nc2ncc(Br)s2)cc1

[2.99, 3.32, 2.78, 2.71, 3.76]

Item FC(F)(F)c1ccc(Nc2ncc(Br)s2)cc1 with Aurora kinase A (Homo sapiens, UniProt O14965) - log10 of IC50?
3.38

====

Target: Aurora kinase A (Homo sapiens)
Sequence (O14965 whole entry): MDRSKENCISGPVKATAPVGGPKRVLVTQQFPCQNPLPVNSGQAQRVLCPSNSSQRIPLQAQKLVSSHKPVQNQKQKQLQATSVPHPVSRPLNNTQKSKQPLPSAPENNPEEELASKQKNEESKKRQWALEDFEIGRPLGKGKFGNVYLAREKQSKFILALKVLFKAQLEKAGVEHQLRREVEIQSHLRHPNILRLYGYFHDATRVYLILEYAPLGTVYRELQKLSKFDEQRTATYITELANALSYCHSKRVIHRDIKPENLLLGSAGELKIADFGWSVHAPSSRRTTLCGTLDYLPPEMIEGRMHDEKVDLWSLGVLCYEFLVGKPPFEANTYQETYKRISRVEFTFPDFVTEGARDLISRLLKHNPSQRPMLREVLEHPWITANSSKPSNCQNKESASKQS
Experiment: Aurora Kinase SPA Assay
Give measured IC50 for each item. Keep answers brief.
Answers are plain numbers, in µM.

Look at each compound and report its IC50.
1. Brc1cnc(Nc2ccccn2)s1
2. CN1CCN(Cc2ccc(Nc3ncc(C#N)s3)nc2)CC1

2
3.8

Look at each compound and report its IC50.
1. CCOC(=O)c1cccc(Nc2ncc(Br)s2)c1
2. O=C(NCCN1CCCC1)c1ccc(Nc2ncc(Br)s2)cc1

1: 2.25; 2: 5.32

Look at each compound and report its IC50.
1. Brc1cnc(Nc2cccnc2)s1
2. N#Cc1cccc(Nc2ncc(Br)s2)c1
3. FC(F)(F)c1cccc(Nc2ncc(Br)s2)c1
4. O=C(NCCN1CCOCC1)c1ccc(Nc2ncc(Br)s2)cc1

1. 3.6
2. 1.5
3. 10
4. 2.3

Look at each compound and report its IC50.
1. CNC(=O)N1CCN(Cc2ccc(Nc3ncc(C#N)s3)nc2)CC1
2. CN(C)CCNC(=O)c1ccc(Nc2ncc(Br)s2)cc1
3. O=C(O)c1cccc(Nc2ncc(Br)s2)c1
4. COCCNC(=O)c1cccc(Nc2ncc(Br)s2)c1
5. CSc1cccc(Nc2ncc(Br)s2)c1

0.88
5.25
0.44
1.22
0.5
